Provide the recorded GI50 for the entries that follow.
System: BT-549
assay-procedure: NCI tumour cell line growth inhibition, 48 h
Activity calls are given as the source filed them. Rule as the data show it: active = GI50 up to about 1.1 µM and inactive = higher.

For orientation, consider the following solved cases.
> print(dat)
                                   compound  target                result
1  CCCCCCCCCCCCCCCCCCNc1ccn(C2OC(CO)C(O)C2O)c(=O)n1 (stereo not given)  BT-549   > 100 µM (inactive)
2  COc1ccc(CNc2ccn(C3OC(CO)C(O)C3O)c(=O)n2)cc1 (stereo not given)  BT-549    62.5 µM (inactive)
3  CCOC(=O)Nc1cc(NC(/C=N/NC(C)=O)C(=O)OCC)c(OC)cc1NC(C)=O (stereo not given)  BT-549   > 100 µM (inactive)
4             COc1c2ccccc2c(OC)c2nc(C)ccc12  BT-549  > 79.1 µM (inactive)
5  C=CC(C)(C)n1cc(C2=C(O)C(=O)C(c3c(CC=C(C)C)[nH]c4ccccc34)=C(O)C2=O)c2ccccc21  BT-549     0.571 µM (active)

Below are 5 compounds. Give each one its GI50.
1. O=C1N[C@@H](c2c[nH]c3ccc(Br)cc23)C(=O)N[C@H]1c1c[nH]c2ccc(Br)cc12
2. CCOC(=O)c1c[nH]c2cc3c(cc2c1=O)CCS3
3. N=c1oc2ccccc2cc1C(=O)Nc1nccs1
4. Cc1c(/N=N/c2ccc(Cl)cc2)c(-c2ccccc2)n(C2OC(CO)C(O)C(O)C2O)c(=S)c1C#N (stereo not given)
5. COc1ccc(C2CC(c3ccc4ccccc4c3O)=NN2C(C)=O)cc1OC (stereo not given)

A:
1. 13.6 µM (inactive)
2. > 100 µM (inactive)
3. 39.5 µM (inactive)
4. 16 µM (inactive)
5. > 100 µM (inactive)
